Procedure Text: gradient 5% acetonitrile 3 min, to 50% in 2 min, to 85% in 15 min, held 3 min, 100 µL/min
Assay Conditions: column: Zorbax Extend-C18 2.1 x 50 mm; eluents: water / acetonitrile, 0.1% formic acid
Measurement Type: RP-LC retention time (s)

compound=CC(C)Cn1nc(CNC(=O)c2ccoc2)c2ccccc21 reading_unit=s recorded_value=846

a. COCCn1nnnc1C1CC2(CCOCC2)C(=O)N1Cc1cc(F)cc(F)c1 (stereo not given)
b. O=C(NCCC1=CCCCC1)C(=O)NCC1(c2cccs2)CCCC1
### Prompt // returns a or b , whichever has the lower RP-LC retention time Mark your selection by writing its label.
### Response a
(a: 740 s, b: 1240 s)

I. CCCN1C(=O)c2cccnc2Sc2cc(C(=O)N3CCN(CC)CC3)ccc21
II. Cc1sc(-c2nnc(C3CC3)o2)cc1NC(=O)C(C)c1ccccc1 (stereo not given)
### Prompt Which one would you say has the larger RP-LC retention time value: I , or II ? The response must carry the label of the picked entry.
### Response II

a. CNC(=O)N1CCC(OC(C)=O)CC1
b. CN(CC#N)C(=O)c1nn(C)c2c1COc1ccccc1-2
### Prompt Looking at recorded values for RP-LC retention time, does a or b come in lower? Let me know the label of the one you choose.
### Response a
